Biological target: T1, chromodomain of CBX8 (human, UniProt Q9HC52 8-61)
T1 sequence (looked up): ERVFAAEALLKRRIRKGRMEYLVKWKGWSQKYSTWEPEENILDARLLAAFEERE
Assay: AlphaScreen or HTRF
diethyl = not defined here
propertyLabel: IC50 (nM)

1. {4‑tBu‑Bz}-FVLK(diethyl)S-OMe (reading uncertain) [compound 43] : 700

This collection of values is drawn from paper PMC5063714.
